Values were extracted from patent US9371374.

Target Or Test System: HCV Core 134-171-TT peptide (ALRZ-9 peptide) (HCV-1)
Measurement Protocol: SPR, captured mAb;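 note: Anti-HCV Core mAbs from hybridoma supernatants held on a rabbit anti-mouse IgG CM5 surface, peptide flowed over 3 min then 4 min dissociation, duplicate concentrations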
Measured kon, listed per entry.
// return numeric value only (unit: M⁻¹ s⁻¹, not printed)

| Binder | Experimental Endpoint | Reported Measurement |
| --- | --- | --- |
| HCV 208A-983 (antibody, V domains shown) VH: QGQMQQSGAELVKPGASVKLSCKTSGFTFSSSYFSWLKQKPGQSLEWIAWIYAGTGNTIYNQKFTDKAQLTVDTASSTAFMQLSSLTIEDSAIYYCAISGTGFTYWGQGTLVTVSA VL: DVLMTQTPLSLPVNLGDQASISCRSSQSLLHSNGNTYLEWFLQKPGQSPKLLIYNVSNRFSGVPDRFSGSGSGTDFTLKISRVEAEDLGVYYCFQGSHVPFTFGSGTKLAIKR | kon | 97000 |

Data point: HCV 208B-1024 (antibody, V domains shown) VH: EVQLVESGGDLVKPGGSLKLSCAASGFTFSNYGMSWVRQTPDKRLEWVATISSGGSYSYYPDSVKGRFTISRDNAKNILYLQMSSLKSEDTAMYYCASLYYGYGDYWGQGTAFTVSS VL: DVLMTQTPLSLPVSLGDQASISCRSSQSIVHSNGNTYLEWYLQKLGQSPKLLIYRVSNRFSGVPDRFSGSGSGTDFTLKISRVEAEDLGVYYCFQGSHVPWTFGGGTKLEIKR ; kon = 1e+06

Data point: HCV 208B-1096 (antibody, V domains shown) VH: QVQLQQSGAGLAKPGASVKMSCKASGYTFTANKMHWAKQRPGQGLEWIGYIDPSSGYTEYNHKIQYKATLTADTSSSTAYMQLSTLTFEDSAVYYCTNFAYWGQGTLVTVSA VL: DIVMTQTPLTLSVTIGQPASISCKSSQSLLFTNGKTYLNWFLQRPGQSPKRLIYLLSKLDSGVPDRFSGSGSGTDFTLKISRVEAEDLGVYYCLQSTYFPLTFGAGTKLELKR ; kon = 1.3e+06

Data point: HCV 208B-547 (antibody, V domains shown) VH: QVQLQQSGAELAKPGASVKMSCKASGYTFTSNKMHWAKQRPGQGLEWIGYIDPSSGYTEYNQKIKDKATLTADKSSSTAYMQLSSLTSEDSAVYYCTNFAYWGQGTLVTVSA VL: EVVLTQSPAITAASLGQKVTITCRASSSVSYMHWYRQKSGTSPQPWIYEISTLASGVPTRFRASGSGTSYSLTISSMEAEDAAIYYCQQWNYPLTFGAGTKLELKR ; kon = 1.6e+06
